The measured values listed here are drawn from patent US4605614A.

Biological target: plasmin (pig) (Sus scrofa, UniProt P06867)
Sequence (P06867 97-809): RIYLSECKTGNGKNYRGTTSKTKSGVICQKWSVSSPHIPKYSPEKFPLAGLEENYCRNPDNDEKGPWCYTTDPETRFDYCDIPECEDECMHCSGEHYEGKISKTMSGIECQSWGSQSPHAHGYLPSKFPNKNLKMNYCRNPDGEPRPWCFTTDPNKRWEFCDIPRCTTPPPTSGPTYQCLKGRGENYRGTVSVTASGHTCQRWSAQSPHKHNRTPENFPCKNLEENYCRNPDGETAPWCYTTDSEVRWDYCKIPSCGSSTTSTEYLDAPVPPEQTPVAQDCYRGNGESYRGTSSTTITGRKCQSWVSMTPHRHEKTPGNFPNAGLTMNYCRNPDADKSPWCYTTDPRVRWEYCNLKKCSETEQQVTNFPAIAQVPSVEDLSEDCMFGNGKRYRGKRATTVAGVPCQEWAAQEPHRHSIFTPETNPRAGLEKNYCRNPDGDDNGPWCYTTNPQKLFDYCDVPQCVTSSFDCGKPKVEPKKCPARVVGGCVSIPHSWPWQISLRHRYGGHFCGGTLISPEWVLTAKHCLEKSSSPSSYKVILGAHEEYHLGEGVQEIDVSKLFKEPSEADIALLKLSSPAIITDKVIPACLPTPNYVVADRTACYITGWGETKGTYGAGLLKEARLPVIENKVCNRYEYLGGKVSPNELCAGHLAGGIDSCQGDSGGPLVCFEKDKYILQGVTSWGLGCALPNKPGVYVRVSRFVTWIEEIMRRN
Test: Km, Vmax and Vmax/Km of substrates for plasmin (pig)
Assay type: biochemical, Porcine (pig)
Conditions: TABLE 1, PNA substrates, plasmin (pig), 405 nm
Where a SMILES comes first, the peptide text is derived from it.
METRIC NAME: Vmax (× 10^7)

Consider the reported Vmax (× 10^7) for these compounds:
COMPOUND	Vmax (× 10^7)
Cc1ccc(CCOC(=O)CC[C@@H](N)C(=O)N[C@@H](Cc2ccccc2)C(=O)N[C@@H](CCCCN)C(=O)Nc2ccc([N+](=O)[O-])cc2)cc1	30.202 × 10^7
NCCCC[C@H](NC(=O)[C@H](Cc1ccccc1)NC(=O)[C@H](N)CCC(=O)NCCCc1ccccc1)C(=O)Nc1ccc([N+](=O)[O-])cc1	24.892 × 10^7
NCCCC[C@H](NC(=O)[C@H](Cc1ccccc1)NC(=O)[C@H](N)CCC(=O)NCCCCc1ccccc1)C(=O)Nc1ccc([N+](=O)[O-])cc1	28.209 × 10^7

Look up Vmax (× 10^7): NCCCC[C@H](NC(=O)[C@H](Cc1ccccc1)NC(=O)[C@H](N)CCC(=O)OC1CCCCC1)C(=O)Nc1ccc([N+](=O)[O-])cc1 [NPN-3, HD-Glu(CHN)PheLysPNA.2HBr] (HELM PEPTIDE1{[dE].F.K.[O=[N+]([O-])c1ccc(N[*:1])cc1]}|CHEM1{[C1CCC(O[*:1])CC1]}$PEPTIDE1,CHEM1,1:R3-1:R1$$$V2.0) 65.287 × 10^7
